# method-notes: Inhibition of fumarate reductase in permeabilized Leishmania major promastigotes
metric-name: IC50
The reply must contain the numeric value and, after it, the unit.

Recorded result, C=CC(C)(C)c1cc(/C=C/C(=O)c2ccc(O)cc2)c(OC)cc1O , IC50: 1.2 µM

====

# Tested on: THP-1
# method-notes: Toxicity against human THP1 cells at 5 uM by alamar blue viability assay
# condition-set: thp-1, 5 µM
Entries and their measured Activity follow.
The reply must contain the numeric value and, after it, the unit.

Before answering, review these 6 worked examples.
Recorded result, CC(=O)/C=C/c1ccc2c(c1)-c1[nH]c3ccc(F)cc3c1CC(=O)N2 , Activity: 0%

Recorded result, CC(=O)/C=C/c1ccc2c(c1)-c1[nH]c3ccc(C(C)(C)C)cc3c1CC(=O)N2 , Activity: 62%

Recorded result, CC(C)(C)c1ccc2[nH]c3c(c2c1)CC(=O)Nc1ccc(/C=C/C(=O)c2ccccc2)cc1-3 , Activity: 0%

Recorded result, COc1ccc(C(=O)/C=C/c2ccc3c(c2)-c2[nH]c4ccc(C(C)(C)C)cc4c2CC(=O)N3)cc1OC , Activity: 49.7%

Recorded result, COc1ccc(C(=O)/C=C/c2ccc3c(c2)-c2[nH]c4ccc(C(C)(C)C)cc4c2CC(=O)N3)cc1 , Activity: 0%

Recorded result, CC(=O)/C=C/c1ccc2c(c1)-c1[nH]c3ccc(C#N)cc3c1CC(=O)N2 , Activity: 48%

Next:
Recorded result, O=C1Cc2c([nH]c3ccccc23)-c2cc(/C=C/C(=O)c3ccccc3)ccc2N1 , Activity: 0%

Recorded result, CC(C)(C)c1ccc2[nH]c3c(c2c1)CC(=O)Nc1ccc(/C=C/C(=O)c2ccc(O)cc2)cc1-3 , Activity: 80.3%

Recorded result, Cc1ccc2[nH]c3c(c2c1)CC(=O)Nc1ccc(/C=C/C(=O)c2ccc(Cl)cc2)cc1-3 , Activity: 0%

Recorded result, COc1cc(C(=O)/C=C/c2ccc3c(c2)-c2[nH]c4ccc(C(C)(C)C)cc4c2CC(=O)N3)cc(OC)c1OC , Activity: 92.7%

Recorded result, COc1ccc(C(=O)/C=C/c2ccc3c(c2)-c2[nH]c4ccc(C(C)(C)C)cc4c2CC(=O)N3)c(OC)c1 , Activity: 0%

Recorded result, CC(C)(C)c1ccc2[nH]c3c(c2c1)CC(=O)Nc1ccc(/C=C/C(=O)c2ccco2)cc1-3 , Activity: 3.3%

Recorded result, CC(C)(C)c1ccc2[nH]c3c(c2c1)CC(=O)Nc1ccc(/C=C/C(=O)c2cccnc2)cc1-3 , Activity: 0%

Recorded result, CC(=O)/C=C/c1ccc2c(c1)-c1[nH]c3ccccc3c1CC(=O)N2 , Activity: 0%

Recorded result, CC(C)(C)c1ccc2[nH]c3c(c2c1)CC(=O)Nc1ccc(/C=C/C(=O)c2cccs2)cc1-3 , Activity: 60.5%

Recorded result, COc1ccc(OC)c(C(=O)/C=C/c2ccc3c(c2)-c2[nH]c4ccc(C(C)(C)C)cc4c2CC(=O)N3)c1 , Activity: 95.7%

Recorded result, CC(C)(C)c1ccc2[nH]c3c(c2c1)CC(=O)Nc1ccc(C#Cc2ccccc2)cc1-3 , Activity: 9%

Recorded result, CC(=O)/C=C/c1ccc2c(c1)-c1[nH]c3ccc(C)cc3c1CC(=O)N2 , Activity: 0%

Recorded result, CC(C)(C)c1ccc2[nH]c3c(c2c1)CC(=O)Nc1ccc(/C=C/C#N)cc1-3 , Activity: 0%

Recorded result, CC(C)(C)c1ccc2[nH]c3c(c2c1)CC(=O)Nc1ccc(/C=C/C(=O)c2ccc(Cl)cc2)cc1-3 , Activity: 0%
